Hi there, I'd appreciate the recorded pKd for every entry that follows.
molecular target: T1, human IL-15Rα (human, UniProt Q13261 31-205, limits assumed); assay: SPR, steady state
T1 construct: also called hIL-15Rα; IL-15 receptor alpha
T1 sequence (Q13261 31-205 limits assumed): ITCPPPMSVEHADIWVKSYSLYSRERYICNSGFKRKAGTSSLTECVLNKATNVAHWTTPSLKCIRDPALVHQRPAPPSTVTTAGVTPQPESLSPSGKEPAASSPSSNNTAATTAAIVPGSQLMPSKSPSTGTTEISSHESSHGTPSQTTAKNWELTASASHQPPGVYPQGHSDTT
Scale: negative log10 of molar concentration, which is what pKd denotes.

Look at this binder and give its reported pKd. hIL-15 V49R/K11V (ligand) NWVNVISDLKVIEDLIQSMHIDATLYTESDVHPSCKVTAMKCFLLELQRISLESGDASIHDTVENLIILANNSLSSNGNVTESGCKECEELEEKNIKEFLQSFVHIVQMFINTGGGGSGHHHHHHHHGGGLNDIFEAQKIEWHE 6.85

Look at this binder and give its reported pKd. hIL-15 V49R/D30R (ligand) NWVNVISDLKKIEDLIQSMHIDATLYTESRVHPSCKVTAMKCFLLELQRISLESGDASIHDTVENLIILANNSLSSNGNVTESGCKECEELEEKNIKEFLQSFVHIVQMFINTGGGGSGHHHHHHHHGGGLNDIFEAQKIEWHE 6.81

Look at this binder and give its reported pKd. hIL-15 V49R/K10Q (ligand) NWVNVISDLQKIEDLIQSMHIDATLYTESDVHPSCKVTAMKCFLLELQRISLESGDASIHDTVENLIILANNSLSSNGNVTESGCKECEELEEKNIKEFLQSFVHIVQMFINTGGGGSGHHHHHHHHGGGLNDIFEAQKIEWHE 7.00

Look at this binder and give its reported pKd. hIL-15 V49R/D61S (ligand) NWVNVISDLKKIEDLIQSMHIDATLYTESDVHPSCKVTAMKCFLLELQRISLESGDASIHSTVENLIILANNSLSSNGNVTESGCKECEELEEKNIKEFLQSFVHIVQMFINTGGGGSGHHHHHHHHGGGLNDIFEAQKIEWHE 6.99

FYI, the data here is from patent US20210324028A1.
